Biological target: Delta-type opioid receptor (Mus musculus)
Sequence (P32300 whole entry): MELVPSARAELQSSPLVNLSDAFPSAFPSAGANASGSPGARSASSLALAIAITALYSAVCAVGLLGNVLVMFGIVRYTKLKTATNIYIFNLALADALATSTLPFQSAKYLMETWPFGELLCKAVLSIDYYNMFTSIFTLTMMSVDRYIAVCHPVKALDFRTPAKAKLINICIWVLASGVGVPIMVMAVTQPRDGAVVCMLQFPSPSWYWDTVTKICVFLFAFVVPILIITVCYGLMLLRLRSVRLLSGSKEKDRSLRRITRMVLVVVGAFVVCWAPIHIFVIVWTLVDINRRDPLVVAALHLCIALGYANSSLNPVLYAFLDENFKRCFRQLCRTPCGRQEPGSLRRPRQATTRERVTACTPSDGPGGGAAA
Assay: Binding affinity towards Opioid receptor delta 1
Non-standard residues stand in square brackets, D forms with d. Residues, ends and D or L forms follow the SMILES beside them. Tic = O=C(O)[C@@H]1Cc2ccccc2CN1
property_label: pKi
To interpret pKi, take it as minus log10 of a concentration measured in moles per litre.

-- ask Quick one: pKi of N[C@@H](Cc1ccc(O)cc1)C(=O)N1Cc2ccccc2C[C@H]1C(=O)N[C@@H](Cc1ccccc1)C(=O)N[C@@H](Cc1ccccc1)C(=O)O (H-Y[Tic]FF-OH) ?
-- reply 8.91

----------
The following compounds have recorded pIC50 on Kappa-type opioid receptor (Cavia porcellus, UniProt P41144).
Sequence (P41144 whole entry): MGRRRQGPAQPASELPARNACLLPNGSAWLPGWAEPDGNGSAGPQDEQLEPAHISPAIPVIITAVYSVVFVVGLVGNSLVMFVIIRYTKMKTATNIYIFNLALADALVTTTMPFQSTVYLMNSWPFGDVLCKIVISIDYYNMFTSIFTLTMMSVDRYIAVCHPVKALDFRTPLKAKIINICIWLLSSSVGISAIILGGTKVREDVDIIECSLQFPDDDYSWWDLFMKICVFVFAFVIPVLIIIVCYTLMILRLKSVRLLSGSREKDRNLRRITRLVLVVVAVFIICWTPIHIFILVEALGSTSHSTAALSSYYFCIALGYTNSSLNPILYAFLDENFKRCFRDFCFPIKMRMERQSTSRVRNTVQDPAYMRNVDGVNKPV
pIC50: −log10 of the molar value. Non-standard residues stand in square brackets, D forms with d. Residues, ends and D or L forms follow the SMILES beside them. *: point of attachment. Phe(4-NH2) = Nc1ccc(C[C@H](N)C(=O)O)cc1; Tic = O=C(O)[C@@H]1Cc2ccccc2CN1; BrAc = O=C(CBr)*

>>> endpoint_value("N[C@@H](Cc1ccc(O)cc1)C(=O)N1Cc2ccccc2C[C@H]1C(=O)N[C@@H](Cc1ccccc1)C(=O)N[C@@H](Cc1ccc(NC(=O)CBr)cc1)C(=O)O (H-Y[Tic]F[Phe(4-NH2)](BrAc)-OH)")
"< 5.00"

From here, focus on the item given below.
-- ask // fetch Kappa-type opioid receptor (Cavia porcellus, UniProt P41144) pIC50 for Nc1ccc(C[C@H](NC(=O)[C@H](Cc2ccccc2)NC(=O)[C@@H]2Cc3ccccc3CN2C(=O)[C@@H](N)Cc2ccc(O)cc2)C(=O)O)cc1 (H-Y[Tic]F[Phe(4-NH2)]-OH)
-- reply < 5.00

----------
# IC50 listing for each entry below
Target: Mu-type opioid receptor (Rattus norvegicus)
Sequence (P33535 whole entry): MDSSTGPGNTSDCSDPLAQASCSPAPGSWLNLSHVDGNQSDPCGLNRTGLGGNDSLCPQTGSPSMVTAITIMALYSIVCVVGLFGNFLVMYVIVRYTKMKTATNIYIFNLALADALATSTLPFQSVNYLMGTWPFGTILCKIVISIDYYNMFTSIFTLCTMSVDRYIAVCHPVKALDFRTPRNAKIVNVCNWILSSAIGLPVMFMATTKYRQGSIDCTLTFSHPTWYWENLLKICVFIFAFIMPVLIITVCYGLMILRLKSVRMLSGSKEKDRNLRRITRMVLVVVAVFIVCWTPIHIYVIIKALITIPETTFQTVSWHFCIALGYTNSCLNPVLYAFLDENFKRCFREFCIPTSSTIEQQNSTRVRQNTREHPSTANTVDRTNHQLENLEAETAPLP
Non-standard residues stand in square brackets, D forms with d. Residues, ends and D or L forms follow the SMILES beside them. *: point of attachment. Phe(4-NH2) = Nc1ccc(C[C@H](N)C(=O)O)cc1; Tic = O=C(O)[C@@H]1Cc2ccccc2CN1; BrAc = O=C(CBr)*

Recorded IC50, per entry:
>>> endpoint_value("N[C@@H](Cc1ccc(O)cc1)C(=O)N1Cc2ccccc2C[C@H]1C(=O)N[C@@H](Cc1ccccc1)C(=O)N[C@@H](Cc1ccc(NC(=O)CBr)cc1)C(=O)O (H-Y[Tic]F[Phe(4-NH2)](BrAc)-OH)")
"> 5.39 µM"
>>> endpoint_value("N[C@@H](Cc1ccc(O)cc1)C(=O)N1Cc2ccccc2C[C@H]1C(=O)N[C@@H](Cc1ccccc1)C(=O)N[C@@H](Cc1ccccc1)C(=O)O (H-Y[Tic]FF-OH)")
"10 µM"
>>> endpoint_value("N[C@@H](Cc1ccc(O)cc1)C(=O)N1Cc2ccccc2C[C@H]1C(=O)N[C@@H](Cc1ccc(NC(=O)CBr)cc1)C(=O)N[C@@H](Cc1ccccc1)C(=O)O (H-Y[Tic][Phe(4-NH2)](BrAc)F-OH)")
"> 10 µM"
>>> endpoint_value("Nc1ccc(C[C@H](NC(=O)[C@@H]2Cc3ccccc3CN2C(=O)[C@@H](N)Cc2ccc(O)cc2)C(=O)N[C@@H](Cc2ccccc2)C(=O)O)cc1 (H-Y[Tic][Phe(4-NH2)]F-OH)")
"> 10 µM"

From here, focus on the item given below.
-- ask // fetch Mu-type opioid receptor (Rattus norvegicus) IC50 for Nc1ccc(C[C@H](NC(=O)[C@H](Cc2ccccc2)NC(=O)[C@@H]2Cc3ccccc3CN2C(=O)[C@@H](N)Cc2ccc(O)cc2)C(=O)O)cc1 (H-Y[Tic]F[Phe(4-NH2)]-OH)
-- reply > 10 µM
